Recorded values, source the supplement of paper PMC4466140.

assayed-system: AgBzz1-D2
protocol-description: SPOT peptide array binding signal intensity (averaged, normalized) (arbitrary units (background-subtracted, floor 0; scale differs between SH3 domains)); higher = stronger binding of the SH3 domain to the peptide
Classes (SPOT peptide array binding signal intensity): LOW: < 20; MID: ≥ 20 and < 50; HIGH: ≥ 50

Observe how each entry below is paired with its result.
PKMLPIPSKPTLFDL : LOW
EREKALPPIPFTTTL : LOW
NVLRKILEIPLHSFS : MID
RKNRAPPQRPRFNRD : HIGH
ILARAILTIPRVLDK : HIGH
NFLRLLIGLPSQNEL : LOW
GSKSGPPPRPKKPST : HIGH
SRYRRPLTLLLLKPF : LOW
RTIRKLPLMSLSEYF : MID
NTMKKRPAPPSLPSL : HIGH

Field: class (SPOT peptide array binding signal intensity) — entry: ISNFVPPNLPMRRFK
HIGH

Same question for DGNEEKPLLPTRPNK please.
LOW

Same question for RSVKRPRRAPRPVVS please.
LOW

Same question for FTLPPPPPPPGLDEL please.
LOW

Same question for RAPPPVPKKPSSRIA please.
HIGH

Same question for DHPKGPPPPPPPDEK please.
HIGH

Same question for QLLNPNRRAPRRPLS please.
MID

Same question for RRTRLRPPTPLSQLL please.
MID

Same question for VQQDSLPKLPFRSWG please.
LOW

Same question for SPLGAPPPPPHKDHL please.
LOW
